system.tested: the molecule itself
method.summary: SEC-MALS; Superdex S-200 HR10/30; 50 mM potassium phosphate pH 7.0, 300 mM KCl, 2 mM DTT, 5% glycerol; dialyzed protein injected at ~20 and ~200 µM (0.35 mg/ml and 3.85 mg/ml); same result at both
Please provide measured stoichiometry N for the entries that follow.
Respond numerically, and do not add a unit to the figure.

Enquiry: Recall and state the measured stoichiometry N for RlmH Y152F, His6-tagged (enzyme, E. coli, UniProt P0A8I8 2-155, looked up, RlmH (YbeA) of E. coli, 155 amino acids; source: E. coli BLR(DE3), purified as the wild-type protein; not shown: His6, N-terminal, kept) KLQLVAVGTKMPDWVQTGFTEYLRRFPKDMPFELIEIPAGKRGKNADIKRILDKEGEQMLAAAGKNRIVTLDIPGKPWDTPQLAAELERWKLDGRDVSLLIGGPEGLSPACKAAAEQSWSLSALTLPHPLVRVLVAESLYRAWSITTNHPFHRE .
Return: 2

Enquiry: Recall and state the measured stoichiometry N for RlmH R154A, His6-tagged (enzyme, E. coli, UniProt P0A8I8 2-155, looked up, RlmH (YbeA) of E. coli, 155 amino acids; source: E. coli BLR(DE3), purified as the wild-type protein; not shown: His6, N-terminal, kept) KLQLVAVGTKMPDWVQTGFTEYLRRFPKDMPFELIEIPAGKRGKNADIKRILDKEGEQMLAAAGKNRIVTLDIPGKPWDTPQLAAELERWKLDGRDVSLLIGGPEGLSPACKAAAEQSWSLSALTLPHPLVRVLVAESLYRAWSITTNHPYHAE .
Return: 2

Enquiry: Recall and state the measured stoichiometry N for ribosomal large-subunit methyltransferase H (RlmH), wild type, His6-tagged (enzyme, E. coli, UniProt P0A8I8 2-155, looked up, RlmH (YbeA) of E. coli, 155 amino acids; rlmH gene from ASKA clone JW0631 in pET24b; no cleavage of the tag is described; Limits 2-155 follow from 'first methionine is replaced' and '155 amino acids'; also called YbeA; WT; source: E. coli BLR(DE3), purified (nickel IMAC twice, SEC on Superdex75); not shown: His6, N-terminal, kept) KLQLVAVGTKMPDWVQTGFTEYLRRFPKDMPFELIEIPAGKRGKNADIKRILDKEGEQMLAAAGKNRIVTLDIPGKPWDTPQLAAELERWKLDGRDVSLLIGGPEGLSPACKAAAEQSWSLSALTLPHPLVRVLVAESLYRAWSITTNHPYHRE .
Return: 2

Enquiry: Recall and state the measured stoichiometry N for RlmH H153F, His6-tagged (enzyme, E. coli, UniProt P0A8I8 2-155, looked up, RlmH (YbeA) of E. coli, 155 amino acids; source: E. coli BLR(DE3), purified as the wild-type protein; not shown: His6, N-terminal, kept) KLQLVAVGTKMPDWVQTGFTEYLRRFPKDMPFELIEIPAGKRGKNADIKRILDKEGEQMLAAAGKNRIVTLDIPGKPWDTPQLAAELERWKLDGRDVSLLIGGPEGLSPACKAAAEQSWSLSALTLPHPLVRVLVAESLYRAWSITTNHPYFRE .
Return: 2
